For each entry below, report its IC50 value.
# subject_of_test: Neuraminidase (Influenza A virus, UniProt B4URF0)
# Sequence (B4URF0 whole entry): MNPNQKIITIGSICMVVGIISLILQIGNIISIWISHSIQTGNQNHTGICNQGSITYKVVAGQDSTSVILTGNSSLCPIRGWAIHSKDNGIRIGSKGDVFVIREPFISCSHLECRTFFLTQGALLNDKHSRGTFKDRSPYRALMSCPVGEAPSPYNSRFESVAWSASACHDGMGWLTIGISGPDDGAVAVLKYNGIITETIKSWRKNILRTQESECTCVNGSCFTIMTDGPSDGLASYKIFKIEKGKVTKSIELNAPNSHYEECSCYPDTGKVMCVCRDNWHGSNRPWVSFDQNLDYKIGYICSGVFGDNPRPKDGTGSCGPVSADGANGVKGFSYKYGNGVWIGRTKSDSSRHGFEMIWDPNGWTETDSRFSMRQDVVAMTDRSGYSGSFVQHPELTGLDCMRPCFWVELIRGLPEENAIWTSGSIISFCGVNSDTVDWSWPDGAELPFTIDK
# assay_summary: Inhibition of Influenza A virus (A/Sw/Kor/CAH1/04 (H1N1) KCTC 11165BP neuraminidase after 30 mins by spectrofluorimetric analysis

Cc1c(O)cc(O)c2c1O[C@H](c1ccccc1)CC2=O | > 500 µM
COc1c(C)c(O)c(C)c2c1C(=O)C[C@@](O)(c1ccccc1)O2 | 283 µM
COc1c(C)c(O)c(C)c2occ(-c3ccccc3)c(=O)c12 | 431 µM

Fill in IC50 for each of the 5 compounds listed.
1. COc1c(C)c(O)c(C)c2oc(-c3ccccc3)cc(=O)c12
2. COc1c(C)c2c(c(O)c1C=O)C(=O)C[C@@H](c1ccccc1)O2
3. Cc1c(O)c(C)c2c(c1O)C(=O)C[C@@H](c1ccccc1)O2
4. COc1c(C)c(O)c2c(c1C)O[C@H](c1ccccc1)CC2=O
5. Cc1c(O)c(C)c2c(c1O)C(=O)[C@H](O)[C@@H](c1ccccc1)O2

Result:
1: 414 µM; 2: 269 µM; 3: 334 µM; 4: > 500 µM; 5: 375 µM

Consider the following items and state reported IC50 for each.
1. COc1c(C)c(O)c2c(c1C=O)O[C@H](c1ccccc1)CC2=O
2. COc1cc(O)c(C)c2c1C(=O)C[C@@H](c1ccccc1)O2

Result:
1: 290 µM; 2: > 500 µM
